Below is a list of entries, each paired with its recorded EC50 value.
Target: arylhydrocarbon receptor (AhR) (Homo sapiens)
Sequence (P35869 11-848): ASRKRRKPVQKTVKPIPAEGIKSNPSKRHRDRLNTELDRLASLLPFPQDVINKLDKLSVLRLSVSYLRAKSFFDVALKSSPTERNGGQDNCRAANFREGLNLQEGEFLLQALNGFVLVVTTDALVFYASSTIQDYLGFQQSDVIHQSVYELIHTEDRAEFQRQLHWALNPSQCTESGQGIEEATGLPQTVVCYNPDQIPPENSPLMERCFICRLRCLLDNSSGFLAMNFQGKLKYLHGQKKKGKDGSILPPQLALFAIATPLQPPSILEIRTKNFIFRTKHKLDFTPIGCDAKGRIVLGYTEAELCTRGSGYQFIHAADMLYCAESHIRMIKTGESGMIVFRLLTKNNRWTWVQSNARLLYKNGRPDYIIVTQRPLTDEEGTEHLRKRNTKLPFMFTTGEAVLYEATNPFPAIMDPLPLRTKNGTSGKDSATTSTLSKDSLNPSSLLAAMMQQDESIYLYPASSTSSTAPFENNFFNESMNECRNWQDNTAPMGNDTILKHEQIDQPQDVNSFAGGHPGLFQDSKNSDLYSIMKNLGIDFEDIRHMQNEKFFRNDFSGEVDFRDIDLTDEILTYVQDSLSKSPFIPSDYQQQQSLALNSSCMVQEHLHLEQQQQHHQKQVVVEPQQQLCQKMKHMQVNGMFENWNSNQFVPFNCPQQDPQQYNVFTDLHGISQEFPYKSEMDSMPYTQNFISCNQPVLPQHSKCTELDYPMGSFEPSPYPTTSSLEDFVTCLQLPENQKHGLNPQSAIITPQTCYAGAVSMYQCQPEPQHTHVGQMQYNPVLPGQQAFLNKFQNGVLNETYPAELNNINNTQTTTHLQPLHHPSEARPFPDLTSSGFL
Test: HepG2-AhR-Luciferase assay
Settings: EC50 (uM), Table 1; 24 hours of treatment
State the answer as a number, implicitly in µM.

Consider the following illustrative entries.
compound	reading-unit	EC50
Cc1ccc2c(Cc3[nH]c4ccccc4c3C=O)c[nH]c2c1	µM	3.17
O=Cc1c(Cc2c[nH]c3ccccc23)[nH]c2ccccc12	µM	4.19
O=Cc1c(C(c2c[nH]c3ccccc23)C2CC2)[nH]c2ccccc12 (centres unmarked)	µM	15.4
CC(c1[nH]c2ccccc2c1CO)c1c[nH]c2ccccc12 (centres unmarked)	µM	15.7
OCc1c(Cc2c[nH]c3ccccc23)[nH]c2ccccc12	µM	13.9
COc1ccc2[nH]c([S+]([O-])Cc3ncc(C)c(OC)c3C)nc2c1 (centres unmarked) [Omeprazole, omeprazole, reference compound]	µM	21.4

input: What value of EC50 has been reported for the following compound? CC(c1[nH]c2ccccc2c1C=O)c1c[nH]c2ccccc12 (centres unmarked)
output: 19.9

input: What value of EC50 has been reported for the following compound? c1ccc2c(c1)[nH]c1cc3c(cc12)[nH]c1ccccc13 [CV-8685, indolo[3,2-b] carbazole]
output: 6.6
